Biological target: Peptidyl-prolyl cis-trans isomerase FKBP1A (Homo sapiens) (UniProt P62942)
Sequence (P62942 whole entry, looked up): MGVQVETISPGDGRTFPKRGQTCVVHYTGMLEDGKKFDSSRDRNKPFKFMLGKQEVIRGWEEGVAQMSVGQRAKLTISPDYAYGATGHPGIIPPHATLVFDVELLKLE
Test: small-molecule binding to FKBP12 – biophysical, NMR detection (AID 608)
Conditions: purified FKBP12
Calls of active or inactive are those of the source. How the calls were made is not given here.
Outcomes: YES (active), NO (inactive)

• CC(C)/C(O)=C1/C(=O)O[C@@H](c2ccoc2)[C@]2(C)C(O)[C@@H](O)[C@@]34OC5(C)OC67CC(C)(C(O)[C@]6(O)[C@@H](O)[C@]3(O5)C12)[C@H](CC(=O)O)[C@]74C (some centres undefined) = NO
• CCOc1cc(C)c(Cl)cc1S(=O)(=O)N(C)C = NO
• OC1CCCN(Cc2ccccc2)C1 (centres undefined) = NO
• Cc1cc(C(=O)N2CCC3(CC2)OCCO3)cs1 = NO
• NC(=O)c1sc2ccccc2c1Cl = NO
• CCn1cnc2cc([N+](=O)[O-])ccc2c1=O = NO
• N#Cc1nc(N2CCCCC2)nc(N2CCOCC2)n1 = NO
• O=C1NNC(=O)C2C3c4ccccc4C(c4ccccc43)C12 (centres undefined) = NO
• CC(=O)Nc1nc(C)c(C(C)=O)s1 = NO
• Cc1cc(O)cc(=O)o1 = NO
• CC1=CC(=O)CC(C)(C)C1(O)/C=C/C(C)=C\C(=O)O (centres undefined) = NO
• O=C(Nc1cnc2ccccn2c1=O)c1ccc(F)cc1 = NO
• Oc1ccc(-n2ccnc2)cc1 = NO
• O=C1NC(=O)/C(=C\c2ccco2)S1 = NO
• Oc1cc2c(cc1O)C1c3ccc(O)c(O)c3OCC1(O)C2 (centres undefined) = NO
• COc1ccc(-c2cc(=O)c3ccccc3o2)cc1 = NO
• O=S1(=O)NC(=NCc2ccco2)c2ccccc21 = NO
• O=C(Nc1cccc(C(F)(F)F)c1)c1cccnc1 = NO
• O=C(O)CCCCCCCCCCCCC1C=CCC1 (centres undefined) = NO
• Cc1cc(C(=O)NC(C)c2ccncc2)no1 (centres undefined) = NO
• Cc1sc2nc3n(c(=O)c2c1C)CCCS3 = NO
• O=c1[nH]cc(S(=O)(=O)N2CCc3ccccc32)c(=O)[nH]1 = NO
• O=C(O)c1ccc(CSc2ncn[nH]2)cc1 = NO
• COc1cc(C(C)=O)ccc1OC(=O)N1CCOCC1 = NO
• Cc1nnsc1C(=O)Nc1cccc(S(N)(=O)=O)c1 = NO
• COC(=O)CSc1nnc(-c2ccc(C(=O)O)cc2)o1 = NO
• NC(=O)C1CC2C=CC1C2 (centres undefined) = NO
• Cc1ccc(-c2nc(N)n(C(=O)c3cccnc3)n2)cc1 = NO
• Nc1cccc(CC(=S)N2CCOCC2)c1 = NO
• Cc1ccc(C(=O)Nc2ccncc2)o1 = NO
• CN1CCC(NC(=O)c2ccccc2[N+](=O)[O-])CC1 = NO
• Cc1ccc(-n2cnnn2)c2cccnc12 = NO
• O=C1NC(=O)C(Cc2ccccc2)C(=O)N1 = NO
• COc1ccc(C)cc1-n1c(-c2ccncc2)n[nH]c1=S = NO
• NCC1COc2ccccc2O1 (centres undefined) = NO
• CC(C)c1c(O)c(-c2cc3c(c(C(C)C)c2O)CCC2C(C)(C)CCC[C@]32C)cc2c1CCC1C(C)(C)CCC[C@]21C (some centres undefined) = NO
• NC(c1ccccc1)c1ccccn1 (centres undefined) = NO
• c1ccc2c(c1)CN1CCCC1=N2 = NO
• S=C(NCc1cccnc1)NC1CC1 = NO
• O=C(O)c1ccc(Nc2nncc(=O)[nH]2)cc1 = NO
• Cc1nc2ccc(C(=O)N3CCSCC3)cc2s1 = NO
• CCc1ccc(OCC(=O)N2CCOCC2)cc1 = YES
• CCOC(=O)CN1C(=O)c2ccccc2C1=O = NO
• CC(C)(C)c1cc(NC(=O)c2cccnc2)no1 = NO
